- procedureSummary: capillary depletion analysis after in situ brain perfusion
- Format: in vivo, mouse
- settings: male, BALB/c, mouse, endothelial cell-enriched pellet (capillary depletion), [3H] ADMA and [14C] Sucrose uptake, pellet, 2.5 mins, 5ml/min; individual mouse
Where a name gives a salt, the structure may show the parent alone.
parameterMeasured: Kp at […]
Field format: numeric only.

So what does the record say about Kp at […] for CN(C)C(N)=NCCC[C@H](N)C(=O)O [ADMA, N^G,N^G-dimethylarginine dihydrochloride] ?
0.0124

* * *

- Tested on: [3H]-ADMA transport across the blood-brain and blood-CSF barriers
- procedureSummary: self-inhibition, in situ perfusion: [^3H]-ADMA with 100 μM unlabelled ADMA
- Assay type: in vivo, mouse
- settings: male, Balb/c, mouse, pellet, other: in situ brain perfusion, with unlabelled ADMA 100 µM, [3H] ADMA + [14C] Sucrose + 100uM un-labelled ADMA, 10 mins, Balb/c ♂, 5ml/min; individual mice; read-out: uptake, pellet
Structures can show the parent of a compound that is named as a salt.
parameterMeasured: Kp at 10 min, 62.5 nM
Field format: numeric only.

So what does the record say about Kp at 10 min, 62.5 nM for CN(C)C(N)=NCCC[C@H](N)C(=O)O [ADMA, N^G,N^G-dimethylarginine dihydrochloride] ?
0.0144
